These measurements were taken from paper PMC10950972.

Experiment: Phase 1 relative bioavailability study part 2: plasma pharmacokinetics of fedratinib (3-period crossover)
Assay type: in vivo, human
Settings: human, plasma, po, 400 mg, Treatment 2A: single 400 mg oral, intact capsules with nutritional supplement; n = 30; read-out: AUC0–∞, geometric mean (statistical analysis)
observed-property: AUC(0-inf) (ng·h/mL)
Give the number; ng·h/mL is assumed, so skip it.

**Query** AUC(0-inf) for Cc1cnc(Nc2ccc(OCCN3CCCC3)cc2)nc1Nc1cccc(S(=O)(=O)NC(C)(C)C)c1 ?
**Result** 25000

###

Test: Phase 1 relative bioavailability study part 1: plasma pharmacokinetics of fedratinib (2-period crossover)
Type: in vivo, human
Settings: human, plasma, po, 400 mg, Treatment 1A: single 400 mg oral, 4 × 100-mg intact capsules with nutritional supplement; n = 27; read-out: t½, mean (SD) (converted)
observed-property: half-life (h)
Reply numerically in h, unit not repeated.

**Query** // query half-life value for entry Cc1cnc(Nc2ccc(OCCN3CCCC3)cc2)nc1Nc1cccc(S(=O)(=O)NC(C)(C)C)c1 [fedratinib]
**Result** 103
